tested on: U2OS; test: Multiplex assay against U2OS; assay type: toxicity, cell-based; conditions: human, 48 h, 10 µM, compound concentration 10 uM, replicate 1
QUANTITY: Population Apoptotic (%)

A selection of reference data follows.
{"columns": ["COMPOUND", "RESULT"],
 "data": [
  ["CC(=O)c1cc(-c2cc(C(=O)NC3CC3)ccc2C)c2ncccn12", "70%"],
  ["Nc1nc2c(c(N3CCNCC3)n1)CCC1=C2[C@@H]2CCCC[C@@H]2O1", "62%"],
  ["Cc1nc(Cc2cccc(C(F)(F)F)c2)sc1-c1ccc(C(N)=O)nc1 [TP-024n]", "55%"],
  ["Cl.Cl.Nc1ncnc2c1c(-c1cccc(OCc3ccccc3)c1)cn2[C@H]1C[C@@H](CN2CCC2)C1", "100%"],
  ["COc1ccc(NS(=O)(=O)c2sc3ccc(Cl)cc3c2C)cc1N1CCNCC1.Cl", "73%"]
]}

GET /values?readout=Population Apoptotic (%)&item= CC(C)N1CCC(C)(C)c2cc(C#Cc3ccc(C(=O)O)cc3)ccc21
30%

Dear colleague, I am looking for the recorded Population Apoptotic (%) of the following compound: CC(C)Oc1ccc(C(=O)N[C@H](CNC(=O)CN(C)C)Cc2ccc(-c3cn4cccc([C@H](C)O)c4n3)cc2)cc1Cl [GSK-923295A]
66%

# lookup: Population Apoptotic (%) of O=C(O)c1ccc2cc(-c3ccc(O)c(C45CC6CC(CC(C6)C4)C5)c3)ccc2c1 [O-DEMETHYLATED ADAPALENE]
72%

Given CCCn1c(=O)c2[nH]c(C34CC5CC(CC3C5)C4)nc2n(CCC)c1=O [ROLOFYLLINE] , state its recorded Population Apoptotic (%).
69%

Field request: Population Apoptotic (%) | item: Cc1cc2c(cc1N1C(=O)c3cccc4c(CCCO)ccc(c34)C1=O)n(C)c(=O)n2C
79%

I am curious: what Population Apoptotic (%) value has been reported for CCC(=O)O[C@]1(C(=O)SCF)[C@H](C)C[C@H]2[C@@H]3C[C@H](F)C4=CC(=O)C=C[C@]4(C)[C@@]3(F)[C@@H](O)C[C@@]21C [FLUTICASONE PROPIONATE] ?
72%

// query Population Apoptotic (%) value for entry CCn1c(-c2nonc2N)nc2cnc(Oc3cccc(NC(=O)c4ccc(OCCN5CCOCC5)cc4)c3)cc21 [GSK-269962A]
64%

Would you kindly share the measured Population Apoptotic (%) for C1=N/C2=N/c3ccc(OCCN4CCCC4)c(c3)COC/C=C\COCc3cccc(c3)C(=C1)N2 ?
100%

Look up Population Apoptotic (%) for this compound: CNc1oc(-c2cccc3ccccc23)nc1C#N
87%

Population Apoptotic (%) lookup needed for CCc1cc2c(cc1CC)CC(NC[C@H](O)c1ccc(O)c3[nH]c(=O)ccc13)C2 [INDACATEROL] , thanks.
84%

I would be grateful if you could share the reported Population Apoptotic (%) for COc1cc2c(NC3CCN(C(C)C)CC3)nc(N3CCC(F)(F)CC3)nc2cc1OCCCN1CCCC1 .
79%

----------
test system: HEK-293T; test: Incucyte cell viability with HEK293T; assay type: toxicity, cell-based; settings: human, 12 h, 10 µM, compound concentration 10 uM, replicate number 1, timepoint 12 hours; note: filed as whole numbers so only -1 and 0 and 1 occur
# Growth Rate annotations

Use the examples below as a reference point.
{"columns": ["COMPOUND", "RESULT"],
 "data": [
  ["CCN(CC)CCCCC1CCN(CC(=O)N2c3ccccc3C(=O)Nc3cccnc32)CC1", 1],
  ["CCOC(=O)c1cc(C#N)c(N2CCC(C(=O)NS(=O)(=O)Cc3ccccc3)CC2)nc1C", 0],
  ["COc1cc2c(Nc3ccc(NC(=O)c4ccccc4)cc3)ncnc2cc1OCCCN1CCOCC1", 0],
  ["CCCc1cc(C)[nH]c(=O)c1CNC(=O)c1cc(-c2ccnc(N3CCN(C)CC3)c2)cc2c1cnn2C(C)C", 0],
  ["CCc1cc2c(cc1CC)CC(NC[C@H](O)c1ccc(O)c3[nH]c(=O)ccc13)C2", 0]
]}

For HEK-293T, provide Growth Rate of CC(C)N1CCC(C)(C)c2cc(C#Cc3ccc(C(=O)O)cc3)ccc21 please.
0

Provide value of Growth Rate for this record tested with HEK-293T: CC(C)Oc1ccc(-c2nn([C@@H](C)c3oc4ccc(F)cc4c(=O)c3-c3cccc(F)c3)c3ncnc(N)c23)cc1F
0

Give recorded Growth Rate with HEK-293T for the following compound: CCCOc1ccc([C@@H]2[C@@H](C(=O)O)[C@H](c3ccc4c(c3)OCO4)CN2CC(=O)Nc2c(CC)cccc2CC)cc1
1

# query: Growth Rate | item CO[C@@H]1COCC[C@@H]1N[C@@H]1CC[C@@](C(=O)N2CCc3ncc(C(F)(F)F)cc3C2)(C(C)C)C1 | system: HEK-293T
1

Item: Cc1cc(C(=O)N2Cc3cnn(C)c3Nc3ccccc32)ccc1CNC(=O)N1CCC[C@H]1C(=S)N1CCCN(C)CC1 Test system: HEK-293T Read-out: Growth Rate Value: ?
0

Param readout= Growth Rate; system= HEK-293T; entry= Nc1nc(NCc2ccccc2)nc(-c2cccc(CO)c2)n1 ; returns value.
0

Quick check: Growth Rate on HEK-293T, item CC(C)Oc1ccc(C(=O)N[C@H](CNC(=O)CN(C)C)Cc2ccc(-c3cn4cccc([C@H](C)O)c4n3)cc2)cc1Cl [GSK-923295A] ?
0

Give the reported Growth Rate for Nc1nc(NCCc2ccc(O)cc2)nc2nc(-c3ccco3)nn12 (system: HEK-293T).
0

// fetch HEK-293T Growth Rate for CCC(=O)N[C@@H]1CC[C@H](C(=O)N(C)c2ccc(-c3nc4ccccc4o3)cc2)C1
0

Observed Growth Rate on HEK-293T for CCC(=O)O[C@]1(C(=O)SCF)[C@H](C)C[C@H]2[C@@H]3C[C@H](F)C4=CC(=O)C=C[C@]4(C)[C@@]3(F)[C@@H](O)C[C@@]21C [FLUTICASONE PROPIONATE] , please.
0

Recall the recorded Growth Rate for COc1ccc(/C=C/CCCCOc2ccc(C(=O)c3cccc(C(=O)O)c3)cc2CCC(=O)O)cc1 with HEK-293T and state it.
1

----------
Form field: Total Cell Count (one value per entry).
test system: U2OS; assay: Multiplex assay against U2OS; type: toxicity, cell-based; conditions: human, 24 h, 1 µM, compound concentration 1 uM, replicate 2
Respond using a number only.

Illustrative cases are given below, each with its answer.
{"columns": ["COMPOUND", "Total Cell Count"],
 "data": [
  ["Nc1ccc(C(=O)Nc2cccc(-c3nc(N4CCOCC4)c4oc5ncccc5c4n3)c2)cn1", 57],
  ["Nc1nc2c(c(N3CCNCC3)n1)CCC1=C2[C@@H]2CCCC[C@@H]2O1", 82],
  ["COc1ccc(NS(=O)(=O)c2sc3ccc(Cl)cc3c2C)cc1N1CCNCC1.Cl", 67],
  ["CCC(=O)O[C@]1(C(=O)SCF)[C@H](C)C[C@H]2[C@@H]3C[C@H](F)C4=CC(=O)C=C[C@]4(C)[C@@]3(F)[C@@H](O)C[C@@]21C [FLUTICASONE PROPIONATE]", 78],
  ["CCOc1cc2ncc(C#N)c(Nc3ccc(OCc4cccc(F)c4)c(Cl)c3)c2cc1NC(=O)/C=C/CN(C)C", 154]
]}

Need Total Cell Count, item Cl.Cl.Nc1ncnc2c1c(-c1cccc(OCc3ccccc3)c1)cn2[C@H]1C[C@@H](CN2CCC2)C1
50

What measured Total Cell Count goes with COc1cc2c(NC3CCN(C(C)C)CC3)nc(N3CCC(F)(F)CC3)nc2cc1OCCCN1CCCC1 ?
113

Need Total Cell Count, item O=C(O)c1ccc2cc(-c3ccc(O)c(C45CC6CC(CC(C6)C4)C5)c3)ccc2c1
60

----------
system: Fibroblast; assay: Multiplex assay against human fibroblast; type: toxicity, cell-based; details: 24 h, 10 µM, compound concentration 10 uM, replicate 2
Catalogue of molecules with associated Population Apoptotic (%)

{"columns": ["MOLECULE", "Population Apoptotic (%)"],
 "data": [
  ["Nc1ccc(C(=O)Nc2cccc(-c3nc(N4CCOCC4)c4oc5ncccc5c4n3)c2)cn1", "84%"],
  ["CN(C)C/C=C/C(=O)Nc1cc2c(Nc3ccc(F)c(Cl)c3)ncnc2cc1O[C@H]1CCOC1.O=C(O)/C=C\\C(=O)O.O=C(O)/C=C\\C(=O)O [AFATINIB DIMALEATE]", "66%"]
]}

In the following, a different molecule is considered.
Give Population Apoptotic (%) (Fibroblast) of the following molecule: Cc1cn(-c2cc(NC(=O)c3ccc4c(c3)CN(c3cncnc3)C[C@@H]4C)cc(C(F)(F)F)c2)cn1
57%

----------
system: Fibroblast; experiment: Multiplex assay against human fibroblast; assay type: toxicity, cell-based; conditions: 24 h, 1 µM, compound concentration 1 uM, replicate 1
Lab note - cut at 60% for Population Apoptotic (%): Fulfilled if strictly below, Not fulfilled if not.

{"columns": ["MOLECULE", "STUDY SYSTEM", "CAT"],
 "data": [
  ["Cc1nc(Cc2cccc(C(F)(F)F)c2)sc1-c1ccc(C(N)=O)nc1 [TP-024n]", "Fibroblast", "Fulfilled"],
  ["CCc1cc2c(cc1CC)CC(NC[C@H](O)c1ccc(O)c3[nH]c(=O)ccc13)C2", "Fibroblast", "Not fulfilled"],
  ["CC(=O)c1cc(-c2cc(C(=O)NC3CC3)ccc2C)c2ncccn12", "Fibroblast", "Not fulfilled"],
  ["CCn1c(-c2nonc2N)nc2cnc(Oc3cccc(NC(=O)c4ccc(OCCN5CCOCC5)cc4)c3)cc21 [GSK-269962A]", "Fibroblast", "Fulfilled"],
  ["COc1ccc(NS(=O)(=O)c2sc3ccc(Cl)cc3c2C)cc1N1CCNCC1.Cl", "Fibroblast", "Fulfilled"]
]}

Please state whether Population Apoptotic (%) is below 60% for Cc1cc2c(cc1N1C(=O)c3cccc4c(CCCO)ccc(c34)C1=O)n(C)c(=O)n2C
Fulfilled

Could you please tell me whether Population Apoptotic (%) recorded for CCOc1cc2ncc(C#N)c(Nc3ccc(OCc4cccc(F)c4)c(Cl)c3)c2cc1NC(=O)/C=C/CN(C)C is less than 60%?
Fulfilled

Strictly below 60%: is that where Population Apoptotic (%) of CC(C)N1CCC(C)(C)c2cc(C#Cc3ccc(C(=O)O)cc3)ccc21 sits?
Not fulfilled

Below 60% on Population Apoptotic (%)? Entry N#Cc1cnc(Nc2cc(NC[C@H]3CNCCO3)c(C(F)(F)F)cn2)cn1
Fulfilled
